# target: VLP2 (virus-like particles, capsid protein particles of AAV serotype 2) (AAV serotype 2 (AAV2)) (UniProt P03135)
# Sequence (P03135 whole entry): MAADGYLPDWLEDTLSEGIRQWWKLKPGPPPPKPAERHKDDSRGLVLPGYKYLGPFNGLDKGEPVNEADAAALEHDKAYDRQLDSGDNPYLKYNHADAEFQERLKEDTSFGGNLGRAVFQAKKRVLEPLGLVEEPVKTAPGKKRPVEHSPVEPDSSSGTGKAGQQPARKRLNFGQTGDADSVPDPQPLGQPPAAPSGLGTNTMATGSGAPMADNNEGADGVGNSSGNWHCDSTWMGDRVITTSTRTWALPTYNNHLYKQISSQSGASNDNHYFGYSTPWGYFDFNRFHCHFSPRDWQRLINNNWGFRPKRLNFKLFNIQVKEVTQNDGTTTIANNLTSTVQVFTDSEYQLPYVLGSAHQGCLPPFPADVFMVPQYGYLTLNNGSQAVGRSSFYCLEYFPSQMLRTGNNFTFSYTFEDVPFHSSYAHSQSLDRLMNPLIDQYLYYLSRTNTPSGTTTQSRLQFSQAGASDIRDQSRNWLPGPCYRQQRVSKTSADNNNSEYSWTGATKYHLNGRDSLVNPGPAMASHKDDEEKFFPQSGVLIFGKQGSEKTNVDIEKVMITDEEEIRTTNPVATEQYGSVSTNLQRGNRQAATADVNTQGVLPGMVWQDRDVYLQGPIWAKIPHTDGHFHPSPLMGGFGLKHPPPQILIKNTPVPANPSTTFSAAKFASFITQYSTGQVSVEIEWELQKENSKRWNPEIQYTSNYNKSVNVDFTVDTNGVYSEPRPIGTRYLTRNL
# assay: ELISA on immobilised VLP2 (culture supernatant, anti-His detection); A450 after 1:1 0.5 M NaOH, 30 min, 30°C divided by A450 untreated
measure: Remaining activity [%]

binder	measure	result
AVR21 with D345G, E454D (receptor) MGSAGESDQITLPKHEAQLNVYVLLVPPKGEASTYGWQLITHPRDYSGEMEGEHSQILKLSNLTPGLYEYRAVVEGQNAHSEGYVNVTVEPEPRKNRPPIAIVSPQFQEISLPTTSTVIDGSQSTDDDKIVQYHWEELKGPLREDKISEDTAILKLSQLVPGNYTFRLTVVDTDGATDSTTADLTVNKAVDHHHHHH	Remaining activity [%]	61.7%
AVR21 with F(Y)379S (receptor) MGSAGESDQITLPKHEAQLNVYVLLVPPKGEASTYDWQLITHPRDYSGEMEGEHSQILKLSNLTPGLYESRAVVEGQNAHSEGYVNVTVEPEPRKNRPPIAIVSPQFQEISLPTTSTVIDGSQSTDDDKIVQYHWEELKGPLREEKISEDTAILKLSQLVPGNYTFRLTVVDTDGATDSTTADLTVNKAVDHHHHHH	Remaining activity [%]	54.9%
AVR21 with L367P, V412A (receptor) MGSAGESDQITLPKHEAQLNVYVLLVPPKGEASTYDWQLITHPRDYSGEMEGEHSQIPKLSNLTPGLYEYRAVVEGQNAHSEGYVNVTVEPEPRKNRPPIAIASPQFQEISLPTTSTVIDGSQSTDDDKIVQYHWEELKGPLREEKISEDTAILKLSQLVPGNYTFRLTVVDTDGATDSTTADLTVNKAVDHHHHHH	Remaining activity [%]	35.8%
